Collected Kd values appear next to each entry.
biological target: microtubule-associated protein light chain 3 beta (LC3B), wild type, full-length 1-125 (human, UniProt Q9GZQ8 1-120); assay: ITC; MicroCal iTC200, 25 °C; proteins 0.25 mmol/L and peptides 3 mmol/L, dialyzed against buffer B (20 mmol/L Tris-HCl, 200 mmol/L NaCl, 1 mmol/L EDTA, pH 8.0); single binding site model; conditions: both partners purified
Non-standard residues stand in square brackets, D forms with d. No end group written: not given here. pY = N[C@@H](Cc1ccc(OP(=O)(O)O)cc1)C(=O)O; pS = N[C@@H](COP(=O)(O)O)C(=O)O
# number only, unit µM dropped from output

// solved cases for Kd follow
DYESDDDSYEVLDLTE (FUNDC1 (Fun14 domain-containing protein 1), LIR and flanking residues 10-25; also called unphosphorylated FUNDC1 peptide; FUNDC1 peptide; source: synthetic peptide (GL Biochem, Shanghai)) [FUNDC1 LIR peptide 10-25, unphosphorylated] = 1.78
DYE[pS]DDDSYEVLDLTE (also called FUNDC1 pS13; pS13 peptide; source: synthetic peptide (GL Biochem, Shanghai)) [FUNDC1 LIR peptide 10-25 phosphorylated at Ser13] = 4.63
DYESDDDS[pY]EVLDLTE (also called FUNDC1 pY18; pY18 peptide; source: synthetic peptide (GL Biochem, Shanghai)) [FUNDC1 LIR peptide 10-25 phosphorylated at Tyr18] = 16.8

# next binder below
DYESDDD[pS]YEVLDLTE (also called FUNDC1 pS17; FUNDC1 pS17 peptide; source: synthetic peptide (GL Biochem, Shanghai)) [FUNDC1 LIR peptide 10-25 phosphorylated at Ser17] yielded Kd of 0.59
